System: Escherichia coli
assay_remarks: Antibacterial activity against Escherichia coli ATCC 25922 after 24 hrs by broth microdilution method
Assay type: functional
condition_label: ATCC 25922, 24 h
Bridge positions count the residues as written; N and C are the ends. Peptide text beside a SMILES is read from it. I, II: the chains in the order shown.
measured_property: MIC (µM)

| compound | system_tested | reading |
| --- | --- | --- |
| N=C(N)NCCC[C@H](NC(=O)CNC(=O)CNC(=O)[C@H](CCCCN)NC(=O)[C@H](CCCNC(=N)N)NC(=O)CNC(=O)[C@@H](N)CCCNC(=N)N)C(=O)N[C@@H](CCCNC(=N)N)C(=O)NCCCC[C@H](NC(=O)[C@H](CCCNC(=N)N)NC(=O)[C@H](CCCNC(=N)N)NC(=O)CNC(=O)CNC(=O)[C@H](CCCCN)NC(=O)[C@H](CCCNC(=N)N)NC(=O)CNC(=O)[C@@H](N)CCCNC(=N)N)C(=O)N[C@@H](CCCCN)C(=O)O (I: H-RGRKGGRRKK-OH / II: H-RGRKGGRR; amide I:9-II:C) | Escherichia coli | 6 |
